# Target or test system: Mitogen-activated protein kinase 11 (Homo sapiens) (UniProt Q15759)
# Sequence (Q15759 whole entry): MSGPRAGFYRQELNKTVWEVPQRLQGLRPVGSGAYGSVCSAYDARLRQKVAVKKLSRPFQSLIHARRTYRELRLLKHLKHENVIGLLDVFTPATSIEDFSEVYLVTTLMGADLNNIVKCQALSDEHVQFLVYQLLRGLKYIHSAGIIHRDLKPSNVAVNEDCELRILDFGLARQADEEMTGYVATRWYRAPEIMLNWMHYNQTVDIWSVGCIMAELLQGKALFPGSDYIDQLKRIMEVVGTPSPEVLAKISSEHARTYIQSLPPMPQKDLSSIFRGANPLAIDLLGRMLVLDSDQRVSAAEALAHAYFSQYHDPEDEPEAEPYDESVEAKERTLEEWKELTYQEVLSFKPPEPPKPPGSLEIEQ
# Protocol summary: Inhibition of p38beta in human PC3 cell lysates at 10 uM using desthiobiotin-tagged ATP probe AX9989 followed by trypsinization by LC/MS analysis
# Reported conditions: PC-3
Reported endpoint: inhibition

Examples from the recorded data:
[[record]]
chemical_smiles = "O=C(NC1(c2ccccc2)CCC1)c1ccc2nc(N[C@H]3CC[C@H](O)CC3)c3nccn3c2c1"
reported_endpoint = "inhibition"
result = "< 35%"

[[record]]
chemical_smiles = "CC(C)(NC(=O)c1ccc2nc(N[C@H]3CC[C@H](O)CC3)c3nccn3c2c1)c1ccccc1"
reported_endpoint = "inhibition"
result = "< 35%"


# input for lookup
Asked: Which measured inhibition belongs to `CCC[C@@H](NC(=O)c1ccc2nc(N[C@H]3CC[C@H](O)CC3)c3nccn3c2c1)c1ccccc1` , tested on Mitogen-activated protein kinase 11 (Homo sapiens) (UniProt Q15759)?
Given back: < 35%

Ref: ChEMBL document CHEMBL2417377
